Reported IC50 values are given for each entry in this list.
- study target: Lymphokine-activated killer T-cell-originated protein kinase (Homo sapiens)
- Sequence (Q96KB5 whole entry): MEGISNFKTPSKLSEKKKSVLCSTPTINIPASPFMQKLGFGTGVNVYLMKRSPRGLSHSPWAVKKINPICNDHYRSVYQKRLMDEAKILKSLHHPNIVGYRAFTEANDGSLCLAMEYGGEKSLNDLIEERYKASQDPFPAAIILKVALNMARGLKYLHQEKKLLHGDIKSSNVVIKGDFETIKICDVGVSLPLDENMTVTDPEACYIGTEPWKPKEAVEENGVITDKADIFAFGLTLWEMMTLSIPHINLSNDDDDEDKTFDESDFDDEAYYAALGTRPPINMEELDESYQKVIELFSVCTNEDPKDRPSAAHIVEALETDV
- assay info: Kinase Assay
- test conditions: pH 7.4; 25 °C

compound	IC50
CNC[C@@H](C)c1ccc(-c2c(O)ccc3[nH]c(=O)c4sccc4c23)cc1 [US8962648, 1197]	2.8 nM

Exercise: Name the reported IC50 value associated with the compound O=c1[nH]c2ccc(O)c(-c3ccc(S(=O)(=O)NCCCl)cc3)c2c2c1CCC2 [US8962648, 1145]
Solution: 13 nM

Exercise: // repeat for COc1ccc2[nH]c(=O)c3sccc3c2c1-c1ccc(CCN)cc1 [US8962648, 169] and report
Solution: 22 nM

Exercise: Another compound: CNCCc1ccc(-c2c(O)cc(C)c3[nH]c(=O)c4sccc4c23)cc1F [US8962648, 1258]
Solution: 25 nM

Exercise: Another compound to look at: C[C@H](CN(C)C)c1ccc(-c2c(O)ccc3[nH]c(=O)c4sccc4c23)cc1 [US8962648, 1172]
Solution: 4 nM

Exercise: Another compound to check: CC(c1ccc(-c2c(O)ccc3[nH]c(=O)c4sccc4c23)cc1F)N(C)C (stereo not drawn) [US8962648, 349]
Solution: 1.9 nM

Exercise: Next record, please: CC(C)(N)c1ccc(-c2c(O)cc(Cl)c3[nH]c(=O)c4sccc4c23)cc1 [US8962648, 334]
Solution: 10 nM

Exercise: Record: NCC1(c2ccc(-c3c(O)cc(Cl)c4[nH]c(=O)c5sccc5c34)cc2)CC1 [US8962648, 1116]
Solution: 22 nM
